molecular target: Cholinesterase (Homo sapiens, UniProt P06276)
Sequence (P06276 whole entry): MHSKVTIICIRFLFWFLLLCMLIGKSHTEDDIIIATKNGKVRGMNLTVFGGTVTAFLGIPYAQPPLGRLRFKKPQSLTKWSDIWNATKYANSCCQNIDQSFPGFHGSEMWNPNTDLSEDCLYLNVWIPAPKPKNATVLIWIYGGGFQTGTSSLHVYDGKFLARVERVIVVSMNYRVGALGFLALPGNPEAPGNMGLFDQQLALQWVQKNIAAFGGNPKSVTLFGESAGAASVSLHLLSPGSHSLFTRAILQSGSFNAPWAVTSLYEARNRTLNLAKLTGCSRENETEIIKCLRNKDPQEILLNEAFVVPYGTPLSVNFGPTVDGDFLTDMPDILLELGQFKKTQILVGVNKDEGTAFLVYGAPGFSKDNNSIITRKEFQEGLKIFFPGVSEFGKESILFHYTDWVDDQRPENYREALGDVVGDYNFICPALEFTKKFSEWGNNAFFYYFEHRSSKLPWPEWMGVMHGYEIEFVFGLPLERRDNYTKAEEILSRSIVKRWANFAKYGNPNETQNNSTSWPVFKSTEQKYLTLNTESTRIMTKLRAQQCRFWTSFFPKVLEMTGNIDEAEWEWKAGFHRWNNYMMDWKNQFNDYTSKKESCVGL
pIC50: −log10 of the molar value.
Label Y when pIC50 is at or above 10; otherwise label N.

1. CCN(CC)Cc1ccccc1CNC(=O)c1cc(NC(=O)c2ccc(F)cc2)ccc1Br | N
2. CCN(CC)Cc1ccccc1CNC(=O)c1cc(C)cc(NC(=O)c2ccc(F)cc2)c1 | Y
3. CCN(CC)Cc1ccccc1CNC(=O)c1cccc(NS(=O)(=O)c2cccs2)c1 | N
4. CCN(CC)Cc1ccccc1CNC(=O)c1cccc(OC(=O)c2cccs2)c1 | N

Data provenance is ChEMBL document CHEMBL5137095.
